B1: ZNF649 (parent)
chain: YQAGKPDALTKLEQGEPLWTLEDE

# Variants of: B1
# ASSAY_DETAILS: protein stability index of a GFP-peptide fusion (GPS, HEK-293T) (PSI 1-6); higher = more stable;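 note: lentivirally expressed fusions sorted by FACS into six bins by GFP to DsRed ratio, PSI derived from sequencing read proportions per bin multiplied by bin number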
# CONDITION: c terminus: a fixed tail appended
Everything with protein stability index lower than 4 is no (0); everything else, including exactly 4, is yes (1).

Example cases with answers are listed next.
INSERT INTO assay_data (record_sequence, answer_label) VALUES
  ('YQFGKPDALTKLEQGEPLWTLEDE [A3F]', 'no (0)'),
  ('YQAGKPDALTKLEQAEPLWTLEDE [G15A]', 'no (0)'),
  ('YQAGKPDALTKLEMGEPLWTLEDE [Q14M]', 'yes (1)'),
  ('YQAGKPDALTKLEQGEPLWTLEGE [D23G]', 'no (0)');

Request: Identify whether the reported protein stability index of the following variant is 4 or greater: YQAGKPDALTKLEGGEPLWTLEDE [Q14G]
Response: yes (1)

Request: Same lookup for YQAGKPDALTKLEQGEPLWTLLDE [E22L] , please.
Response: no (0)

Request: Next: YQAGKPDALTKLEQGEPLWRLEDE [T20R]
Response: yes (1)

Request: Lookup YQAGKPDALTKLEQGEPLWTLEDM [E24M]
Response: no (0)

Request: Okay, and YQAGKPDALTKLEVGEPLWTLEDE [Q14V] ?
Response: yes (1)
